Would you mind telling me the reported half-life of each entry?
# assay_method_text: Plant extract stability assay (RP-HPLC)
# Format: in vitro ADME, Nicotiana tabacum
# assay_setup: tobacco leaf extract (20% v/v) containing plant proteases; 1 mg peptide in 20% v/v tobacco leaf extract in 10 mM phosphate buffer pH 7.4, 37°C, stopped with 1% TFA, RP-HPLC C18 peak integration, mean ± SEM n = 3
No end group written: not given here.

- VARGWGRKCPLFGKNKSR [VR18]: > 1 h

Please turn your attention to the following entry.
Prompt: For KNKSRVARGWGRKCPLFG [KG18] , what is its reported half-life?
Completion: > 1 h
